Kindly state IC90 for each of the entries shown.
molecular target: APOL1 G1 (Homo sapiens, UniProt O14791, I384M/S342G); assay: MultiTox-Fluor Multiplex Cytotoxicity Assay, tet-inducible APOL1 G1 T-REx-HEK293 cells; type: cell-based; design: expressed in transfected cells; host or cells: T-REx HEK293, clone G1 DC3.25 (pAAVS1-Puro-APOL1 G1); conditions: HEK293, Multi-Tox Assay; APOL1 variant (G0/G1/G2) of the HEK293 cells not given; read-out: Multi-Tox Assay IC90
Sequence (O14791 28-398 S342G/I384M): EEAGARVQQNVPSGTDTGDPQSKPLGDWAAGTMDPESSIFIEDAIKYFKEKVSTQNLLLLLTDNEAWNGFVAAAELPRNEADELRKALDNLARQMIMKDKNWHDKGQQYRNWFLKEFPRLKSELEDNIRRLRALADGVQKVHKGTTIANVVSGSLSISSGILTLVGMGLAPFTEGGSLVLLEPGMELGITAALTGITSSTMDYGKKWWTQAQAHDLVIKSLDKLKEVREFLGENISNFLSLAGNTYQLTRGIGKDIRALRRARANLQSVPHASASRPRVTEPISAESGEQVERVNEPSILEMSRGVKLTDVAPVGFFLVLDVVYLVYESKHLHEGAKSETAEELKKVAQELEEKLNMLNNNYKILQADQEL

Recorded results for 5 molecules are shown here.
molecule="Cc1cccc([C@@H]2C[C@]3(C[C@H](C)N2)OCCc2cc(Cl)sc23)n1 (racemic)" test_value="50 to 500 nM"
molecule="C[C@H]1C[C@@]2(C[C@@H](c3cnc(C4CC4)nc3)N1)OCCc1cc(Cl)sc12 (racemic)" test_value="< 50 nM"
molecule=C[C@H]1C[C@@]2(C[C@@H](c3cn(CC(F)F)nn3)N1)OC[C@@H](O)c1cc(Cl)sc12 test_value="50 to 500 nM"
molecule=C[C@H]1C[C@@]2(C[C@@H](c3cn(CC4(CO)CC4)nn3)N1)OCC(F)(F)c1cc(Cl)sc12 test_value="50 to 500 nM"
molecule="C[C@H]1C[C@@]2(C[C@@H](c3ccc(N(C)C)nc3)N1)OCCc1cc(Cl)sc12 (racemic)" test_value="< 50 nM"

Hey, quick one: what's IC90 for each of these?
1. C[C@H]1C[C@@]2(C[C@@H](c3cn(Cc4cccc5c4OCCO5)nn3)N1)OC[C@@H](O)c1cc(Cl)sc12
2. COc1ccc(C(O)Cn2cc([C@@H]3C[C@]4(C[C@H](C)N3)OCC(F)(F)c3cc(Cl)sc34)nn2)cc1 (some centres unmarked)
3. Cc1cccc(OCC(O)Cn2cc([C@@H]3C[C@]4(C[C@H](C)N3)OC[C@@H](O)c3cc(Cl)sc34)nn2)c1 (some centres unmarked)
4. C[C@H]1C[C@@]2(C[C@@H](c3cn(CC4CCCCO4)nn3)N1)OCC(F)(F)c1cc(Cl)sc12 (some centres unmarked)
5. CCn1cc(Cn2cc([C@@H]3C[C@]4(C[C@H](C)N3)OC[C@@H](O)c3cc(Cl)sc34)nn2)cn1
6. C[C@H]1C[C@@]2(C[C@@H](c3cn(Cc4ncnc5[nH]ccc45)nn3)N1)OC[C@@H](O)c1cc(Cl)sc12
7. C[C@H]1C[C@@]2(C[C@@H](c3cn(C[C@@H](O)CO)nn3)N1)OC[C@@H](O)c1cc(Cl)sc12
8. C[C@H]1C[C@@]2(C[C@@H](c3cn(CCCS(C)(=O)=O)nn3)N1)OCC(F)(F)c1cc(Cl)sc12

Return:
1. 50 to 500 nM
2. > 500 nM
3. 50 to 500 nM
4. 50 to 500 nM
5. 50 to 500 nM
6. 50 to 500 nM
7. 50 to 500 nM
8. 50 to 500 nM
